# Test Target: OCT2 (Homo sapiens)
# Sequence (O15244 1-555): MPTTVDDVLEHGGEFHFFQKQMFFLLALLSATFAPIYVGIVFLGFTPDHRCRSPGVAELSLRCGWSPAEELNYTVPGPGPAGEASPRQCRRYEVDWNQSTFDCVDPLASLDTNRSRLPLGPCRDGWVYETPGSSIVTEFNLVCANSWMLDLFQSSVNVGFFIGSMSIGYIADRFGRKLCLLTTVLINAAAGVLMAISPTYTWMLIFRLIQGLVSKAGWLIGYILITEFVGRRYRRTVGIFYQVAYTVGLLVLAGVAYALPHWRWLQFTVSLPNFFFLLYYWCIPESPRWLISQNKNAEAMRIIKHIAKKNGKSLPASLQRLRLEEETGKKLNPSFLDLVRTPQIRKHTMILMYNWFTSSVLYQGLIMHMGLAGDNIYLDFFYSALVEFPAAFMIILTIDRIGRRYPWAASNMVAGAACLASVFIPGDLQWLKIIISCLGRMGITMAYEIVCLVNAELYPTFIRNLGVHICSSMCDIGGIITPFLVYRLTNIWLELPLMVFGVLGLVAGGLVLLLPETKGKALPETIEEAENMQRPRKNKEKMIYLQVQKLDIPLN
# Method: Inhibition of model substrate uptake in OCT2-overexpressing HEK293 cells
# Condition Label: OCT2; 20 μM inhibitor, 2 μM N-ethyllidocaine, 5 min
Parameter: N-Ethyllidocaine inhibition [%] (%)
State the answer as a number, implicitly in %.

Example results:
INSERT INTO results (compound, parameter, value_reported) VALUES
  ('CCN1CCC[C@@H]1CNC(=O)c1cc(S(=O)(=O)CC)c(N)cc1OC [(R)-Amisulpride]', 'N-Ethyllidocaine inhibition [%]', 11.3),
  ('O=C(OC1C[N+]2(CCCOc3ccccc3)CCC1CC2)C(O)(c1cccs1)c1cccs1 [(S)-Aclidinium]', 'N-Ethyllidocaine inhibition [%]', 57.3);

response.value for CNCC[C@H](Oc1ccc(C(F)(F)F)cc1)c1ccccc1 [(S)-Fluoxetine] (field: N-Ethyllidocaine inhibition [%]) = 28.7

* * *

# Test Target: OCT3 (Homo sapiens)
# Construct: expressed in transfected cells; host or cells: HEK293
# Method: Inhibition of model substrate uptake in OCT3-overexpressing HEK293 cells
# Assay type: cell-based
# Condition Label: HEK293, 5 min, read-out: (S)-Zolmitriptan inhibition [%], OCT3; 20 μM inhibitor, 2 μM (S)-zolmitriptan, 5 min
Tick Condition met if inhibition at 20 µM is 30% or greater. Tick Condition not met if inhibition at 20 µM is less than 30%.

INSERT INTO results (compound, class_label) VALUES
  ('CC(C)NC[C@H](O)COc1ccc(CC(N)=O)cc1 [(S)-Atenolol]', 'Condition not met'),
  ('CCN1CCC[C@@H]1CNC(=O)c1cc(S(=O)(=O)CC)c(N)cc1OC [(R)-Amisulpride]', 'Condition met'),
  ('CC(C)Cc1ccc([C@@H](C)C(=O)O)cc1 [(R)-Ibuprofen]', 'Condition not met');

# ---- query compound ----
Exam item: decide whether the reported inhibition at 20 µM for CC(C)NC[C@@H](O)COc1ccc(CC(N)=O)cc1 [(R)-Atenolol] is at least 30%.
Condition not met

* * *

Measured Km values are reported for all entries that follow.
# Test Target: OCT2 (Homo sapiens)
# Method: Concentration-dependent uptake of model substrates, OCT2-overexpressing HEK293 cells
# Type: in vitro ADME
# Parameters: expressed in transfected cells; host or cells: HEK293
# Condition Label: this study, read-out: Km ± SEM
# Method: Koepsell and Gorbulev (University of Würzburg, Germany). Prior to inhibition studies, the used model substrates were validated in concentration-dependent uptake experiments if no literature data were available (Table S2 and Figures S2 and S3). […] Intracellularly accumulated substrates were then quantified by LC–MS/MS analysis, and calibration was performed with known concentrations of the respective substances. […]
State the answer as a number, implicitly in µM.

INSERT INTO assay_data (smiles_structure, value_reported) VALUES
  ('CN(C)c1ccc(C=Cc2cc[n+](C)cc2)cc1', 29.6);

response.value for CC[N+](CC)(CC)CC(=O)Nc1c(C)cccc1C (field: Km) = 87.7

* * *

# Test Target: OCT2 (Homo sapiens, UniProt O15244)
# Method: Inhibition of model substrate uptake in OCT2-overexpressing HEK293 cells
# Condition Label: IC50
Parameter: pIC50
# pIC50: negative log10 of molar concentration; output just the value

INSERT INTO results (molecule, value_reported) VALUES
  ('CNCC[C@H](Oc1cccc2ccccc12)c1cccs1 [(S)-Duloxetine]', 4.78);

Let us examine a further case.
response.value for CNCC[C@@H](Oc1cccc2ccccc12)c1cccs1 [(R)-Duloxetine] (field: pIC50) = 4.60

* * *

Measured pIC50 values are reported for all entries that follow.
# Test Target: OCT3 (Homo sapiens, UniProt O75751)
# Construct: expressed in transfected cells; host or cells: HEK293
# Sequence (O75751 whole entry): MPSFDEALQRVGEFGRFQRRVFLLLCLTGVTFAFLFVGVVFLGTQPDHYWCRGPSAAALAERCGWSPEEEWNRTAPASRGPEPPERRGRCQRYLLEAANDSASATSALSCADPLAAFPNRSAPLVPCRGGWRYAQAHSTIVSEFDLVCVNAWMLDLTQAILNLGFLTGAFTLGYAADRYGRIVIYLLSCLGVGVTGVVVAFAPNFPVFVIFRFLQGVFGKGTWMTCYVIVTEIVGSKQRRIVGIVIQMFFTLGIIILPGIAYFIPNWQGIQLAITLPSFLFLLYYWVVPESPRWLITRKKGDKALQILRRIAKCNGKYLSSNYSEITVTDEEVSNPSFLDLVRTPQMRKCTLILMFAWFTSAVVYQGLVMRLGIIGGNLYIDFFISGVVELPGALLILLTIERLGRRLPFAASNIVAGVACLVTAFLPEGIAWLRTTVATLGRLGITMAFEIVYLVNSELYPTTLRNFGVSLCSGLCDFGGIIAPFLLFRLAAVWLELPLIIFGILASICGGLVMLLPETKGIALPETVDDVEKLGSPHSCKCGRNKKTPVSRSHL
# Method: Inhibition of model substrate uptake in OCT3-overexpressing HEK293 cells
# Type: cell-based
# Condition Label: OCT3; model substrate 2 μM N-ethyllidocaine, 5 min; read-out: IC50
# pIC50: negative log10 of molar concentration; output just the value

INSERT INTO results (molecule, value_reported) VALUES
  ('Cc1ccc(O)c([C@H](CCN(C(C)C)C(C)C)c2ccccc2)c1 [(R)-Tolterodine]', 6.64);

Let us examine a further case.
response.value for Cc1ccc(O)c([C@@H](CCN(C(C)C)C(C)C)c2ccccc2)c1 [(S)-Tolterodine] (field: pIC50) = 5.51

* * *

Measured ASP+ inhibition [%] values are reported for all entries that follow.
# Test Target: OCT3 (Homo sapiens, UniProt O75751)
# Construct: expressed in transfected cells; host or cells: HEK293
# Method: Inhibition of model substrate uptake in OCT3-overexpressing HEK293 cells
# Format: cell-based
# Condition Label: OCT3; 20 μM inhibitor, 2 μM ASP+, 5 min
State the answer as a number, implicitly in %.

INSERT INTO assay_data (compound, test_target, value_reported) VALUES
  ('CC(C)C[C@@H](N(C)C)C1(c2ccc(Cl)cc2)CCC1 [(R)-Sibutramine]', 'OCT3 (Homo sapiens, UniProt O75751)', 2.6),
  ('CC(C)(C)NC[C@@H](O)c1ccc(O)c(CO)c1 [(S)-Salbutamol]', 'OCT3 (Homo sapiens, UniProt O75751)', 1.3),
  ('CCN[C@@H](C)Cc1cccc(C(F)(F)F)c1 [(S)-Fenfluramine]', 'OCT3 (Homo sapiens, UniProt O75751)', 12.7);

Let us examine a further case.
response.value for CCN1CCC[C@H]1CNC(=O)c1cc(S(=O)(=O)CC)c(N)cc1OC [(S)-Amisulpride] (field: ASP+ inhibition [%]) = 33.7

* * *

Measured inhibition at 20 µM values are reported for all entries that follow.
# Test Target: OCT3 (Homo sapiens)
# Construct: expressed in transfected cells; host or cells: HEK293
# Method: Inhibition of model substrate uptake in OCT3-overexpressing HEK293 cells
# Assay type: cell-based
# Condition Label: HEK293, OCT3; 20 μM inhibitor, 2 μM ASP+, 5 min; read-out: ASP+ inhibition [%]
State the answer as a number, implicitly in %.

Example results:
INSERT INTO assay_data (molecule, test_target, parameter, reading_unit, value_reported) VALUES
  ('CC(C)(C)NC[C@@H](O)COc1nsnc1N1CCOCC1 [(R)-Timolol]', 'OCT3 (Homo sapiens)', 'inhibition at 20 µM', '%', 28.6),
  ('CC(C)Cc1ccc([C@H](C)C(=O)O)cc1 [(S)-Ibuprofen]', 'OCT3 (Homo sapiens)', 'inhibition at 20 µM', '%', 12.9),
  ('CCN[C@H](C)Cc1cccc(C(F)(F)F)c1 [(R)-Fenfluramine]', 'OCT3 (Homo sapiens)', 'inhibition at 20 µM', '%', 7.6);

response.value for CC(C)NC[C@H](O)COc1ccc(CC(N)=O)cc1 [(S)-Atenolol] (field: inhibition at 20 µM) = 0.9

response.value for C=C[C@H]1C[N@@]2CC[C@H]1C[C@H]2[C@H](O)c1ccnc2ccc(OC)cc12 (field: inhibition at 20 µM) = 10.3

response.value for CCN(CC)CC#CCOC(=O)[C@](O)(c1ccccc1)C1CCCCC1 [(R)-Oxybutynine] (field: inhibition at 20 µM) = 31.3

response.value for COc1ccccc1OCCNC[C@@H](O)COc1cccc2[nH]c3ccccc3c12 [(R)-Carvedilol] (field: inhibition at 20 µM) = 23.5

response.value for CCCNC[C@@H](O)COc1ccccc1C(=O)CCc1ccccc1 [(R)-Propafenone] (field: inhibition at 20 µM) = 17.3

response.value for CNC[C@H](O)c1cccc(O)c1 [(R)-Phenylephrine] (field: inhibition at 20 µM) = -4.1

response.value for CC(C)NC[C@@H](O)COc1ccc(CC(N)=O)cc1 [(R)-Atenolol] (field: inhibition at 20 µM) = 3.9
